This collection of values is drawn from patent US9487490B2.

IC50 listing for selected molecules.
# experimentalTarget: human RORgammaT-Ligand Binding Domain (LBD) (Homo sapiens (Human), UniProt P51449)
# Sequence (P51449 269-508): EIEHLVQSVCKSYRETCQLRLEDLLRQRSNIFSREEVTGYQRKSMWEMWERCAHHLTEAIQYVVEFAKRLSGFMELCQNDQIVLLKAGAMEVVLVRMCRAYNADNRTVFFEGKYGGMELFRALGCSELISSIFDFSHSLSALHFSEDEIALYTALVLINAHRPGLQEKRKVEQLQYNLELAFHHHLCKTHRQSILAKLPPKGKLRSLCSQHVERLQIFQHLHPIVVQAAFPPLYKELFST
# experimentalProtocol: RORγ-Ligand Binding Domain TR-FRET assay (co-activator peptide SRC1_2 recruitment)
# Format: biochemical
# conditionDescription: Fret IC50 (nM), HIS-tagged RORγ-LBD 3 nM, biotinylated SRC1 LXXLL peptide 100 nM, incubated overnight at 4° C., 665 nm/615 nm signal quotient

molecule	unitsSymbol	IC50
CC1(C)CC(c2nn(C(=O)c3c(Cl)cccc3C(F)(F)F)c3cccc(F)c23)=CCC1C(=O)O (racemic) [Example 10B]	nM	96
CC1(C)C=C(c2nn(C(=O)c3c(Cl)cccc3C(F)(F)F)c3cccc(F)c23)CCC1C(=O)O (racemic) [Example 10A]	nM	343
